Provenance of the data: the Immune Epitope Database (IEDB)

# assaySystem: HLA-A*32:15
# experimentalProtocol: IEDB peptide-MHC binding, purified MHC/competitive/fluorescence; filed as Kd, often an IC50 or EC50 that approximates it; bounds were set here for any values at or beyond the usual limits of such assays
# conditionNotes: source organism: Yersinia pestis Nepal516
pKd: −log10 of the molar value.
measuredProperty: pKd

* FYFNWNTPI | 8.14
* MPFAWQFGF | 8.49

----------
The sequences listed here are annotated with their pKd.
# assaySystem: HLA-B*15:01
# experimentalProtocol: IEDB peptide-MHC binding, purified MHC/direct/fluorescence; filed as Kd, often an IC50 or EC50 that approximates it; bounds were set here for any values at or beyond the usual limits of such assays
# conditionNotes: source organism: Giardia lamblia ATCC 50803
pKd: −log10 of the molar value.
measuredProperty: pKd

- RHIAIQVCY: 5.76
- TTIEDILPK: ≤ 4.70
- PPPPLQHPI: ≤ 4.70
- AEFPVGSTA: ≤ 4.70
